experiment: Metabolic stability in mouse liver microsomes assessed as parent compound remaining after 10 mins; type: ADME, Microsome; conditions: read-out: Stabilty
Label YES when remaining at 10 min < 50%; otherwise NO.

Before answering, review these 5 worked examples.
In [3]: df
Out[3]:
                                   compound  answer_label
0  CCOc1ncc(-c2ccc3ncc(Cl)c(N[C@H](C)c4ccccc4F)c3c2)cn1           YES
1  CC(C)C(Nc1c(Cl)cnc2ccc(-c3cnc(C(C)(C)O)nc3)cc12)c1ccccc1F (racemic)           YES
2  CCC(Nc1c(Cl)cnc2ccc(-c3cnc(C(C)(C)O)nc3)cc12)c1ccccc1F (racemic)           YES
3  C[C@@H](Nc1c(Cl)cnc2ccc(-c3ccc(C(C)(C)O)cc3)cc12)c1ccccc1F           YES
4  CC(Nc1c(Cl)cnc2ccc(-c3cnc(C(C)(C)O)nc3)cc12)c1ccccn1 (racemic)           YES

Answer whether the compound CC(Nc1c(Cl)cnc2ccc(-c3cnc(C(C)(C)O)nc3)cc12)c1ccccc1F (racemic) has remaining at 10 min strictly less than 50%
YES

Answer whether the compound Cc1ccc(C)c(Nc2c(Cl)cnc3ccc(-c4ccc(C#N)nc4)cc23)c1 has remaining at 10 min strictly less than 50%
YES

Answer whether the compound C[C@H](Nc1c(Cl)cnc2ccc(-c3cnc(C(C)(C)O)nc3)cc12)c1ccccc1 has remaining at 10 min strictly less than 50%
YES

Answer whether the compound CC(Nc1c(Cl)cnc2c(F)cc(-c3cnc(C(C)(C)O)nc3)cc12)c1ccccc1F (racemic) has remaining at 10 min strictly less than 50%
YES

Answer whether the compound C[C@@H](Nc1c(Cl)cnc2ccc(-c3cnc(C(C)(C)O)nc3)cc12)c1cc(C#N)ccc1F has remaining at 10 min strictly less than 50%
YES

Answer whether the compound Cc1nc2cc(F)c(-c3cnc(C(C)(C)O)nc3)nc2c(N[C@H](C)c2cc(C#N)ccc2F)c1Cl has remaining at 10 min strictly less than 50%
NO
